# Tested on: primary human dermal fibroblasts
# protocol_summary: TGFβ-induced fibroblasts to myofibroblasts transition (FMT), α-SMA immunocytochemistry
# Format: cell-based
# measurement_context: Fibroblast, α-SMA-positive cells, 48 h, NC: not converged
pIC50: −log10 of the molar value.
test_readout: pIC50

// query Check the records and state pIC50 for O=C(O)CCCc1cc2cc(Cl)ccc2n1S(=O)(=O)c1ccc2ncsc2c1 [compound A]
// result ~4.95

====

# target_or_test_system: mouse PPARδ (Mus musculus)
# Sequence (P35396 210-440 limits assumed): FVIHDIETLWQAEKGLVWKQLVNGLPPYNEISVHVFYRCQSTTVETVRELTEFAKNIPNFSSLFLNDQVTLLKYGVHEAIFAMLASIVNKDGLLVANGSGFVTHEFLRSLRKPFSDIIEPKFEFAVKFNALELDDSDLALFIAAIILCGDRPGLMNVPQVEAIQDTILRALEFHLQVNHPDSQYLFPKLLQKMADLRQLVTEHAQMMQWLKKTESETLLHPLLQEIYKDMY
# protocol_summary: Transient transactivation assay, Cos-7 cells, chimeric PPARδ-Gal4, luciferase reporter
# measurement_context: Gal4 chimera, mean of 5 experiments, estimated (plateau not reached)
test_readout: pEC50
Just the number, please; pEC50 means minus log10 of the concentration in mol/L.

// query Check the records and state pEC50 for O=C(O)CCCc1cc2cc(Cl)ccc2n1S(=O)(=O)c1ccc2ncsc2c1 [compound A]
// result 5.70

meta.source: patent US10052311B2
